Listed molecules paired with reported pIC50
- MEASURED_ON: WRN [UniPro: Q14191 (WRN_HUMAN), N500-C946] (Homo sapiens (Human))
- Sequence (Q14191 500-946): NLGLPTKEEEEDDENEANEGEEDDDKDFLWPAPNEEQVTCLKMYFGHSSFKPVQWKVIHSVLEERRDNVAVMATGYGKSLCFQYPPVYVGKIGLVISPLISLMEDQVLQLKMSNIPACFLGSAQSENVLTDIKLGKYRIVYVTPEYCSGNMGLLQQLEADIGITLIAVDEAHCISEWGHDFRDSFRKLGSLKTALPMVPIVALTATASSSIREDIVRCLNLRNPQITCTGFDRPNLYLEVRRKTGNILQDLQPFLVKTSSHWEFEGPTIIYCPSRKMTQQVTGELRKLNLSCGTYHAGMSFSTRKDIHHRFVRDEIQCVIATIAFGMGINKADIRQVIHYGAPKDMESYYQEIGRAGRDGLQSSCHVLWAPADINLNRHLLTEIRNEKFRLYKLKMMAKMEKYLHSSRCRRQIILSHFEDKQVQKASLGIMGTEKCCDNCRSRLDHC
- MEASUREMENT_NOTES: WRN unwinding assay (FORKF DNA, fluorescence)
- Assay type: biochemical
- TEST_CONTEXT: Table 14
pIC50: −log10 of the molar value.

| SMILES_REPR | VALUE |
| --- | --- |
| CCc1c(N2CCN(C(=O)CNC(=O)c3ccco3)CC2)c(=O)n2nc(C3=CCOCC3)nc2n1CC(=O)Nc1ccc(C(F)(F)F)cc1Cl | > 7.00 |

Any idea what pIC50 was measured for CCc1c(N2CCN(C(=O)CNc3ncccn3)CC2)c(=O)n2nc(C3=CCOCC3)nc2n1CC(=O)Nc1ccc(C(F)(F)F)cc1Cl ? 6.00 to 7.00

// next record CCc1c(N2CCN(C(=O)c3cnc4cc(C)cn4c3O)CC2)c(=O)n2nc(C3=CCOCC3)nc2n1CC(=O)Nc1ccc(C(F)(F)F)cc1Cl > 7.00

Data provenance is patent US20260015358A1.
